- TESTED_ON: recombinant USP7 TRAF domain (residues 62–205) (UniProt Q93009 62-205)
- Sequence (Q93009 62-205): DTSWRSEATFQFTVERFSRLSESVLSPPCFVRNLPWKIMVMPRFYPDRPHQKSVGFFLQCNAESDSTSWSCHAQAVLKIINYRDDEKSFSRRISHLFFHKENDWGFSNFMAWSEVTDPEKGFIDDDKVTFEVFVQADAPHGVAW
- ASSAY_OVERVIEW: ITC
READOUT_KIND: Kd (µM)
Express your answer in µM, writing the number without its unit.

Return reported Kd. Input binder: SPCEPGTSGFN [Pol ι peptide 573–584]
4.8
